All values here come from ChEMBL document CHEMBL2218924.

assay_target: SRSF protein kinase 2 (Homo sapiens) (UniProt P78362)
Sequence (P78362 whole entry, looked up): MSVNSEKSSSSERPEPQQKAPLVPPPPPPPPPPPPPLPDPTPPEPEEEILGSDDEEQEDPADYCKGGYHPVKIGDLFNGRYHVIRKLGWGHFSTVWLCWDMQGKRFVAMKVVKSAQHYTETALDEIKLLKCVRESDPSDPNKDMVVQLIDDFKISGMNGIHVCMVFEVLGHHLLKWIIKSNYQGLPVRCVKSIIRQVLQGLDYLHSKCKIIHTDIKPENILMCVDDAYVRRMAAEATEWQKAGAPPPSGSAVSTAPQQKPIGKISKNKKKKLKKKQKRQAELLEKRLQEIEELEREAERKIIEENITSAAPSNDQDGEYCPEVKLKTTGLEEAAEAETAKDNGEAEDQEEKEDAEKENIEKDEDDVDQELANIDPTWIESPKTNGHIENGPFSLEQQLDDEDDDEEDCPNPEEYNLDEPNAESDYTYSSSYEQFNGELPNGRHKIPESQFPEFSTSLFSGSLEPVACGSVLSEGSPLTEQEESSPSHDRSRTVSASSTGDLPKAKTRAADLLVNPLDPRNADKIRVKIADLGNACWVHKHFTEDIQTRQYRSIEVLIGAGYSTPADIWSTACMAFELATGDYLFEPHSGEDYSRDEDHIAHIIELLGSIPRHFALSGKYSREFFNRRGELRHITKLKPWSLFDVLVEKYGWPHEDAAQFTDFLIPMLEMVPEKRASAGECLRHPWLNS
test_parameters: at 1 µM
readout_name: residual activity (%)

>  <entry_smiles>
CC(C)(C)c1cc(C=C(C#N)C#N)cc(Br)c1O

>  <assay_target>
SRSF protein kinase 2 (Homo sapiens) (UniProt P78362)

>  <readout_name>
residual activity

>  <quantitative_result>
105

$$$$
>  <entry_smiles>
O=[N+]([O-])/C=C/c1ccc2c(c1)OCO2

>  <assay_target>
SRSF protein kinase 2 (Homo sapiens) (UniProt P78362)

>  <readout_name>
residual activity

>  <quantitative_result>
97

$$$$
>  <entry_smiles>
COc1cc(OC)c(/C=C2\C(=O)Nc3ccccc32)c(OC)c1

>  <assay_target>
SRSF protein kinase 2 (Homo sapiens) (UniProt P78362)

>  <readout_name>
residual activity

>  <quantitative_result>
104

$$$$
>  <entry_smiles>
COc1cc2ncnc(Nc3ccc(OCc4ccccc4)cc3)c2cc1OC

>  <assay_target>
SRSF protein kinase 2 (Homo sapiens) (UniProt P78362)

>  <readout_name>
residual activity

>  <quantitative_result>
108

$$$$
>  <entry_smiles>
N/C(=N\[N+](=O)[O-])N/N=C\c1ccc(-c2cccc([N+](=O)[O-])c2)o1

>  <assay_target>
SRSF protein kinase 2 (Homo sapiens) (UniProt P78362)

>  <readout_name>
residual activity

>  <quantitative_result>
99

$$$$

----------
assay_target: Calcium/calmodulin-dependent protein kinase type 1 (Homo sapiens)
test_parameters: at 1 µM
// NB: equality with 90% counts as No; only residual activity strictly below is Yes

>  <entry_smiles>
CC(C)(C)c1cc(C=C(C#N)C#N)cc(Br)c1O

>  <answer_label>
No

$$$$
>  <entry_smiles>
O=C1Nc2ccc3ncsc3c2/C1=C/c1c[nH]cn1

>  <answer_label>
Yes

$$$$
>  <entry_smiles>
CC(C)[C@H](CO)Nc1nc(Nc2cccc(Cl)c2)c2ncn(C(C)C)c2n1

>  <answer_label>
No

$$$$
>  <entry_smiles>
N/C(=N\[N+](=O)[O-])N/N=C\c1ccc(-c2cccc([N+](=O)[O-])c2)o1

>  <answer_label>
No

$$$$
>  <entry_smiles>
O=C1c2ccccc2-c2nc3nnnn3nc21

>  <answer_label>
No

$$$$

----------
assay_target: Mitogen-activated protein kinase kinase kinase kinase 2 (Homo sapiens) (UniProt Q12851)
Sequence (Q12851 whole entry): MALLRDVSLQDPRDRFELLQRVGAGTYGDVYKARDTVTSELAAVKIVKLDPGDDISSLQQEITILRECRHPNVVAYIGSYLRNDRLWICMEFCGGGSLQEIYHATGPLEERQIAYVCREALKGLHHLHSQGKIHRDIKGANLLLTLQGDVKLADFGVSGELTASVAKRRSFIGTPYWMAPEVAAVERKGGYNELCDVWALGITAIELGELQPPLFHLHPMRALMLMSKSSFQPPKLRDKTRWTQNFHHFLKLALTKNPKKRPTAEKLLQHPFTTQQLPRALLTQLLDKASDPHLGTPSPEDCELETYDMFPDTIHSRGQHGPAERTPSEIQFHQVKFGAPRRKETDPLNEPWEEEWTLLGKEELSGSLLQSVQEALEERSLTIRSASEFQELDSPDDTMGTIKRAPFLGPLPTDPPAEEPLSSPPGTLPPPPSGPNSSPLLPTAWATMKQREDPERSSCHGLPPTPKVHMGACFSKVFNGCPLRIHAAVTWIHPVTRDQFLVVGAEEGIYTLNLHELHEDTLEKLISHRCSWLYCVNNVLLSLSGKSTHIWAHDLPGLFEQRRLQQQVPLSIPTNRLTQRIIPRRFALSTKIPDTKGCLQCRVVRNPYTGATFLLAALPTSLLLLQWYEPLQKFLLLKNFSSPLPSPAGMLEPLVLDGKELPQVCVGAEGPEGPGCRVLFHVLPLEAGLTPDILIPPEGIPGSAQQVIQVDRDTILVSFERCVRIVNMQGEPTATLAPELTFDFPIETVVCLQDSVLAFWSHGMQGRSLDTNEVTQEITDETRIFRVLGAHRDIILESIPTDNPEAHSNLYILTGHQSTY
test_parameters: at 10 µM
readout_name: residual activity

>  <compound>
C[S+]([O-])c1ccc(-c2nc(-c3ccc(F)cc3)c(-c3ccncc3)[nH]2)cc1 (centres undefined)

>  <assay_target>
Mitogen-activated protein kinase kinase kinase kinase 2 (Homo sapiens) (UniProt Q12851)

>  <readout_name>
residual activity

>  <result>
100%

$$$$
>  <compound>
COc1cc2ncnc(Nc3ccc(OCc4ccccc4)cc3)c2cc1OC

>  <assay_target>
Mitogen-activated protein kinase kinase kinase kinase 2 (Homo sapiens) (UniProt Q12851)

>  <readout_name>
residual activity

>  <result>
85%

$$$$
>  <compound>
O=C1NC(=O)c2c1c1c3ccccc3n3c1c1c2c2ccccc2n1C1CCC3O1

>  <assay_target>
Mitogen-activated protein kinase kinase kinase kinase 2 (Homo sapiens) (UniProt Q12851)

>  <readout_name>
residual activity

>  <result>
10%

$$$$
>  <compound>
COc1ccc2c(c1)/C(=C/c1cnc[nH]1)C(=O)N2

>  <assay_target>
Mitogen-activated protein kinase kinase kinase kinase 2 (Homo sapiens) (UniProt Q12851)

>  <readout_name>
residual activity

>  <result>
3%

$$$$
>  <compound>
O=c1[nH]c2ccccc2n1C1CCN(Cc2ccc(-c3nc4cc5[nH]cnc5cc4nc3-c3ccccc3)cc2)CC1

>  <assay_target>
Mitogen-activated protein kinase kinase kinase kinase 2 (Homo sapiens) (UniProt Q12851)

>  <readout_name>
residual activity

>  <result>
80%

$$$$
>  <compound>
c1cc(-c2cnn3cc(-c4ccc(OCCN5CCCCC5)cc4)cnc23)ccn1

>  <assay_target>
Mitogen-activated protein kinase kinase kinase kinase 2 (Homo sapiens) (UniProt Q12851)

>  <readout_name>
residual activity

>  <result>
1%

$$$$
>  <compound>
CN[C@@H]1C[C@H]2O[C@@](C)([C@@H]1OC)n1c3ccccc3c3c4c(c5c6ccccc6n2c5c31)C(=O)NC4

>  <assay_target>
Mitogen-activated protein kinase kinase kinase kinase 2 (Homo sapiens) (UniProt Q12851)

>  <readout_name>
residual activity

>  <result>
0%

$$$$
>  <compound>
O=C1Nc2ccc3ncsc3c2/C1=C/c1c[nH]cn1

>  <assay_target>
Mitogen-activated protein kinase kinase kinase kinase 2 (Homo sapiens) (UniProt Q12851)

>  <readout_name>
residual activity

>  <result>
1%

$$$$
>  <compound>
O=[N+]([O-])/C=C/c1ccc2c(c1)OCO2

>  <assay_target>
Mitogen-activated protein kinase kinase kinase kinase 2 (Homo sapiens) (UniProt Q12851)

>  <readout_name>
residual activity

>  <result>
86%

$$$$
